assayTarget: 3-hydroxyacyl-CoA dehydrogenase type-2 (Homo sapiens)
testSummary: qHTS Assay for Inhibitors of HSD17B4, hydroxysteroid (17-beta) dehydrogenase 4;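 note: the protocol describes HADH2 (HSD17B10) and not the HSD17B4 of the title; nearly all actives have a fitted effect of over 70% in size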
testContext: recombinant HSD17B10, NADH fluorescence kinetic; series mostly up to 57.1 µM
Among all 75,000 compounds or so, about 5,700 (7.6%) were called active. Roughly 7% stayed inconclusive and do not appear here. Calls come from the whole dose curve; as a rule, active = well fitted inhibition curve with a large enough effect; inconclusive = small, poorly fitted or top-dose-only effect; inactive = no such curve, though single readings can be large or run the other way. The sample as a whole holds a higher share of actives than the screen did.
Outcome codes: active, inactive

molecule	assignedCategory
CC[C@@H]1CN2CC[C@@H]1C[C@H]2[C@H](O)c1ccnc2ccc(OC)cc12	active
Fc1ccc(C(OCCN2CCN(C/C=C\c3ccccc3)CC2)c2ccc(F)cc2)cc1	inactive
CN1C2CC3CC1C(O3)C2O (stereo unspecified)	inactive
Cc1cccc([C@H](C)c2cnc[nH]2)c1C	inactive
Cc1cccc(-n2c(C)nc3cc(C(=O)N4CCC5(CC4)OCCO5)ccc32)c1	inactive
c1csc(CN2CCCC3(CCNCC3)C2)n1	inactive
CCOC(=O)c1c(-c2ccccc2)oc2ccc(OC(=O)N(C)C)cc12	active
CCCCN1C2CCC1CC(OC(c1ccc(F)cc1)c1ccc(F)cc1)C2 (stereo unspecified)	inactive
CNC(C)[C@@H](O)c1ccccc1 (stereo partly specified)	inactive
CCNC[C@H](O)c1cccc(O)c1	inactive
N[C@H](C(=O)O)c1cc(=O)[nH]o1	inactive
